Ref: patent EP0384722A1

experiment: Comparison of bioavailability of Compound A and Trimethoprim (TMP) administered by i/v injection, cats; type: in vivo; conditions: female, cat, serum, intravenous, 2 mg/kg, cat 4; 24 hours post inj.; i/v injection at 2 mg/kg; read-out: Serum conc. of Compound A
parameter-measured: concentration at 24 h

| entry-smiles | parameter-measured | result |
| --- | --- | --- |
| Cc1cc(Cc2cnc(N)nc2N)c2cccnc2c1N(C)C | concentration at 24 h | 0 ng/mL |

* * *

assay: Comparison of bioavailability of Compound A and Trimethoprim (TMP) administered by i/v injection, dogs; format: in vivo; settings: female, beagle, serum, intravenous; dog F; 5 hours post inj.; i/v injection at 2 mg/kg; read-out: Serum conc. of TMP
parameter-measured: concentration at 5 h (ng/mL)

| compound | parameter-measured | unit-abbrev | quantitative-result |
| --- | --- | --- | --- |
| COc1cc(Cc2cnc(N)nc2N)cc(OC)c1OC [TMP, trimethoprim] | concentration at 5 h | ng/mL | 310 |
